- Species on record: Rattus norvegicus
- Assay Overview: Open TG-GATES - Regimen: Daily Repeat
- Type: toxicity, organism-based, Sprague-Dawley
- Set-up: regimen Daily Repeat, gender Male, age 6 weeks
- Experimental Parameters: in vivo, po, 300 mg/kg, […], tissue Plasma, route gavage, dose level Middle, time 28 day
Observed Property: TP (g/dL)
One number for each entry, in g/dL.

As a guide, the following entries are already answered.
Compound | TP / g/dL
CCOC(=O)CCC(=O)O[C@H]1[C@H](O[C@@H]2[C@@H](C)[C@H](O[C@H]3C[C@@](C)(OC)[C@@H](O)[C@H](C)O3)[C@@H](C)C(=O)O[C@H](CC)[C@@](C)(O)[C@H](O)[C@@H](C)C(=O)[C@H](C)C[C@@]2(C)O)O[C@H](C)C[C@@H]1N(C)C [ERYTHROMYCIN ETHYLSUCCINATE] | 5.8
NC(N)=Nc1nc(CSCCC(N)=NS(N)(=O)=O)cs1 [FAMOTIDINE] | 5.9
COC1=CC(=O)C[C@@H](C)[C@]12Oc1c(Cl)c(OC)cc(OC)c1C2=O [GRISEOFULVIN] | 6

For every item in the list below, what is its measured TP?
1. CCOc1ccc(NC(=O)CC(C)O)cc1 (stereo not given) [BUCETIN]
2. COc1ccc2[nH]c([S+]([O-])Cc3ncc(C)c(OC)c3C)nc2c1 (stereo not given) [OMEPRAZOLE]

output:
1: 6.3; 2: 6.1
